# Tested on: HeLa Kyoto;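 further: HeLa Kyoto cells synchronized by double thymidine or nocodazole block, proteins quantified by TMT10plex mass spectrometry, three independent biological replicates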
# ASSAY TEXT: melting temperature (median over replicates), in situ; higher = more thermally stable
# CONDITION LABEL: cell cycle stage: G1/S

MACROMOLECULE SEQUENCE	melting temperature [°C]
MSLGRLCRLLKPALLCGALAAPGLAGTMCASRDDWRCARSMHEFSAKDIDGHMVNLDKYRGFVCIVTNVASQUGKTEVNYTQLVDLHARYAECGLRILAFPCNQFGKQEPGSNEEIKEFAAGYNVKFDMFSKICVNGDDAHPLWKWMKIQPKGKGILGNAIKWNFTKFLIDKNGCVVKRYGPMEEPLVIEKDLPHYF [GPX4]	56.3
MAPRLCSISVTARRLLGGPGPRAGDVASAAAARFYSKDNEGSWFRSLFVHKVDPRKDAHSTLLSKKETSNLYKIQFHNVKPEYLDAYNSLTEAVLPKLHLDEDYPCSLVGNWNTWYGEQDQAVHLWRFSGGYPALMDCMNKLKNNKEYLEFRRERSQMLLSRRNQLLLEFSFWNEPQPRMGPNIYELRTYKLKPGTMIEWGNNWARAIKYRQENQEAVGGFFSQIGELYVVHHLWAYKDLQSREETRNAAWRKRGWDENVYYTVPLVRHMESRIMIPLKISPLQ [NIPSNAP1]	53.9
MSSIGTGYDLSASTFSPDGRVFQVEYAMKAVENSSTAIGIRCKDGVVFGVEKLVLSKLYEEGSNKRLFNVDRHVGMAVAGLLADARSLADIAREEASNFRSNFGYNIPLKHLADRVAMYVHAYTLYSAVRPFGCSFMLGSYSVNDGAQLYMIDPSGVSYGYWGCAIGKARQAAKTEIEKLQMKEMTCRDIVKEVAKIIYIVHDEVKDKAFELELSWVGELTNGRHEIVPKDIREEAEKYAKESLKEEDESDDDNM [PSMA3]	60.7
